# test system: BRAF^WT (MEK1^SASA:BRAF^WT:14-3-3 dimer complex) (Homo sapiens)
# Construct: His6 (N); made in house; host or cells: SF9 insect cells (baculovirus)
# assay notes: biochemical
# Format: biochemical
# conditions used: 1 nM enzyme, 250 nM MEK1, 200 μM ATP, 40 min preincubation, 30 min reaction; read-out: BRAF^WT IC50
Some compounds, each annotated with its measured IC50.

Example entries begin here.
compound	test system	property label	reported measurement
O=C(c1c(F)ccc(NS(=O)(=O)N2CC[C@@H](F)C2)c1F)c1c[nH]c2ncc(-c3cnc(C4CC4)nc3)cc12 [PLX8394]	BRAF^WT (MEK1^SASA:BRAF^WT:14-3-3 dimer complex) (Homo sapiens)	IC50	54 nM
Cc1ccc(NC(=O)c2ccnc(C(F)(F)F)c2)cc1-c1cc(OCCO)nc(N2CCOCC2)c1 [Naporafenib]	BRAF^WT (MEK1^SASA:BRAF^WT:14-3-3 dimer complex) (Homo sapiens)	IC50	37.1 nM
CCN(C)S(=O)(=O)Nc1ccc(F)c(C(=O)c2c[nH]c3ncc(-c4cnc(C5CC5)nc4)cc23)c1F [PLX7904]	BRAF^WT (MEK1^SASA:BRAF^WT:14-3-3 dimer complex) (Homo sapiens)	IC50	> 999 nM

Bench note: what IC50 did Cc1ccc2c(Nc3cccc(Cl)c3F)nccc2c1NC(=O)c1csc2c(N)ncnc12 [Belvarafenib] show?
19.9 nM

###

# test system: CRAF^SSDD (MEK1^SASA:CRAF^SSDD:14-3-3 dimer complex) (Homo sapiens, UniProt P04049, Y340D/Y341D)
# Construct: His6 (N); StrepII (N); made in house; host or cells: insect cells (baculovirus)
# assay notes: TR-FRET kinase inhibition assay (phosphorylation of biotinylated MEK1), CRAF SSDD dimer complex
# Type: biochemical
# conditions used: four-parameter fit; 200 μM ATP
Some molecules, each annotated with its measured CRAF^SSDD nH (Hill slope).
Keep the answer to the number alone.

Example entries begin here.
molecule	CRAF^SSDD nH (Hill slope)
CNc1ncc2cc(-c3cc(NC(=O)NCCC(C)(C)C)c(F)cc3C)c(C)nc2n1 [LY3009120]	−2.9
O=C(c1c(F)ccc(NS(=O)(=O)N2CC[C@@H](F)C2)c1F)c1c[nH]c2ncc(-c3cnc(C4CC4)nc3)cc12 [PLX8394]	−0.5
OCCn1cc(-c2ccc3c(c2)CC/C3=N\O)c(-c2ccncc2)n1 [GDC0879]	−0.7
Cc1ccc2c(Nc3cccc(Cl)c3F)nccc2c1NC(=O)c1csc2c(N)ncnc12 [Belvarafenib]	−3.0

Bench note: what CRAF^SSDD nH (Hill slope) did Cc1ccc(NC(=O)c2ccnc(C(F)(F)F)c2)cc1-c1cc(OCCO)nc(N2CCOCC2)c1 [Naporafenib] show?
−2.6

Entry CC(C)(C)c1nc(-c2cccc(NS(=O)(=O)c3c(F)cccc3F)c2F)c(-c2ccnc(N)n2)s1 [Dabrafenib] please
−1.0

Entry Cc1ccc(C(=O)Nc2ccc(CN3CCN(C)CC3)c(C(F)(F)F)c2)cc1C#Cc1cnc2cccnn12 [Ponatinib] please
−1.6

###

# test system: BRAF^WT (MEK1^SASA:BRAF^WT:14-3-3 dimer complex) (Homo sapiens, UniProt P15056)
# Construct: His6 (N); made in house; host or cells: SF9 insect cells (baculovirus)
# Sequence (P15056 419-766, one chain of several): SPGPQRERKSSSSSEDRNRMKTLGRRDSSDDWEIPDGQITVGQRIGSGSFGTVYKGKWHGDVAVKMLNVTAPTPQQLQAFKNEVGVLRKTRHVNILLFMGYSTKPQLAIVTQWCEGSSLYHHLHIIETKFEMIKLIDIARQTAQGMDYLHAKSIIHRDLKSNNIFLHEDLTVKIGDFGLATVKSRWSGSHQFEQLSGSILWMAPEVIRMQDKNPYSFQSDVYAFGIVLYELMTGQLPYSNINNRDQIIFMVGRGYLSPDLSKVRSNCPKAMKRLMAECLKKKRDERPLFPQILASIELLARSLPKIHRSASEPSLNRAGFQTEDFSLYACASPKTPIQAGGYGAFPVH
# assay notes: biochemical
# Format: biochemical
# conditions used: IC50 of BRAF^WT at 10 μM ATP, 10 μM ATP
Some compounds, each annotated with its measured IC50.
Numbers only; they are read as nM.

Example entries begin here.
compound structure string	IC50 / nM
O=C(c1c(F)ccc(NS(=O)(=O)N2CC[C@@H](F)C2)c1F)c1c[nH]c2ncc(-c3cnc(C4CC4)nc3)cc12	11.1
Cc1ccc(NC(=O)c2ccnc(C(F)(F)F)c2)cc1-c1cc(OCCO)nc(N2CCOCC2)c1	29.1

Now look at this entry.
Notebook entry, BRAF^WT (MEK1^SASA:BRAF^WT:14-3-3 dimer complex) (Homo sapiens, UniProt P15056) assay: IC50 of Cc1ccc2c(Nc3cccc(Cl)c3F)nccc2c1NC(=O)c1csc2c(N)ncnc12 = ?
14.2
